# SYSTEM TESTED: acyl-CoA : cholesterol acyltransferase (ACAT) (Rattus norvegicus)
# Construct: mucosal microsome fraction of the small intestine; from tissue; host or cells: mucosal microsome fraction of rat small intestine
# ASSAY METHOD TEXT: Acyl-CoA : Cholesterol Acyltransferase (ACAT) inhibitory activity
# Type: biochemical
# STUDY CONDITIONS: 10^-6 M of test compound; production of labeled cholesterol ester; read-out: ACAT Inhibition Rate (%)
# Experimental: The enzyme ACAT was prepared by the method of Heider et al. described in Journal of Lipid Research, Vol. 24, page 1127 (1982), from the mucosal microsome fraction of the small intestine of male, 6-week old Sprague-Dawley rats which had been fasted for 20 hours. […]
MEASURED QUANTITY: inhibition at 1 µM (%)
Write the number in % without appending the unit.

Prompt: May I ask what inhibition at 1 µM has been recorded for Cc1cc(C)c2c(c1)c(-c1ccccc1Cl)c(NC(=O)Nc1c(C)cccc1C(C)C)c(=O)n2C ?
Response: 98.2

* * *

Measured pIC50 on acyl-CoA : cholesterol acyltransferase (ACAT) (Rattus norvegicus) follows.
# pIC50: negative log10 of molar concentration; output just the value

CCc1ccc2c(c1)c(-c1ccccc1Cl)c(NC(=O)Nc1c(C)cccc1C(C)C)c(=O)n2C [Example 18]: 7.92
Cc1cc2c(-c3ccccc3Cl)c(NC(=O)Nc3ccc(F)cc3F)c(=O)n(C)c2cc1C [Example 3]: 8.19
Cc1cc2c(-c3ccccc3C)c(NC(=O)Nc3ccc(F)cc3F)c(=O)n(C)c2cc1C [Example 10]: 7.11
COc1ccc(-c2c(NC(=O)Nc3c(C)cccc3C(C)C)c(=O)n(C)c3ccc(Cl)cc23)cc1OC [Example 23]: 7.39
Cc1ccccc1-c1c(NC(=O)Nc2ccc(F)cc2F)c(=O)n(C)c2ccc(Cl)cc12 [Example 20]: 7.46

Prompt: Which pIC50 reading was recorded for the molecule COc1ccc(-c2c(NC(=O)Nc3c(C)cccc3C(C)C)c(=O)n(C)c3ccc(C)cc23)cc1OC [Example 22] ?
Response: 7.43

Prompt: Now give it for CCc1ccc2c(c1)c(-c1ccccc1Cl)c(NC(=O)Nc1ccc(F)cc1F)c(=O)n2C [Example 17] too.
Response: 7.60

* * *

Measured inhibition at 1 µM by item
# SYSTEM TESTED: acyl-CoA : cholesterol acyltransferase (ACAT) (Rattus norvegicus)
# Construct: mucosal microsome fraction of the small intestine; from tissue; host or cells: mucosal microsome fraction of rat small intestine
# ASSAY METHOD TEXT: Acyl-CoA : Cholesterol Acyltransferase (ACAT) inhibitory activity
# Format: biochemical
# STUDY CONDITIONS: 10^-6 M of test compound; production of labeled cholesterol ester; read-out: ACAT Inhibition Rate (%)
# unit: % | format: bare number

# annotated cases, reported inhibition at 1 µM shown
COc1cc(NC(=O)Nc2c(-c3ccccc3Cl)c3cc(C)c(C)cc3n(C)c2=O)cc(OC)c1OC(C)=O [Example 15]: 90.1
CCc1ccc2c(c1)c(-c1ccccc1Cl)c(NC(=O)Nc1ccc(F)cc1F)c(=O)n2C [Example 17]: 96.5
Cc1cc2c(-c3ccccc3C)c(NC(=O)Nc3ccc(F)cc3F)c(=O)n(C)c2cc1C [Example 10]: 97.6
COc1ccc(-c2c(NC(=O)Nc3c(C)cccc3C(C)C)c(=O)n(C)c3ccc(C)cc23)cc1OC [Example 22]: 99
Cc1cc2c(-c3ccccc3Cl)c(NC(=O)Nc3ccc(F)cc3F)c(=O)n(C)c2cc1C [Example 3]: 98.7
Cc1cc(C)c2nc(C)c(NC(=O)Nc3ccc(F)cc3F)c(-c3ccccc3Cl)c2c1 [Example 13]: 85.4

// next entry
Prompt: Could you tell me which inhibition at 1 µM is on file for CC(C)c1ccc2c(c1)c(-c1ccccc1Cl)c(NC(=O)Nc1ccc(F)cc1F)c(=O)n2C [Example 19] ?
Response: 97.8

* * *

// reported inhibition at 1 µM for each item listed
# SYSTEM TESTED: acyl-CoA : cholesterol acyltransferase (ACAT) (Rattus norvegicus)
# Construct: mucosal microsome fraction of the small intestine; from tissue; host or cells: mucosal microsome fraction of rat small intestine
# Sequence (Q7TQM4 1-524): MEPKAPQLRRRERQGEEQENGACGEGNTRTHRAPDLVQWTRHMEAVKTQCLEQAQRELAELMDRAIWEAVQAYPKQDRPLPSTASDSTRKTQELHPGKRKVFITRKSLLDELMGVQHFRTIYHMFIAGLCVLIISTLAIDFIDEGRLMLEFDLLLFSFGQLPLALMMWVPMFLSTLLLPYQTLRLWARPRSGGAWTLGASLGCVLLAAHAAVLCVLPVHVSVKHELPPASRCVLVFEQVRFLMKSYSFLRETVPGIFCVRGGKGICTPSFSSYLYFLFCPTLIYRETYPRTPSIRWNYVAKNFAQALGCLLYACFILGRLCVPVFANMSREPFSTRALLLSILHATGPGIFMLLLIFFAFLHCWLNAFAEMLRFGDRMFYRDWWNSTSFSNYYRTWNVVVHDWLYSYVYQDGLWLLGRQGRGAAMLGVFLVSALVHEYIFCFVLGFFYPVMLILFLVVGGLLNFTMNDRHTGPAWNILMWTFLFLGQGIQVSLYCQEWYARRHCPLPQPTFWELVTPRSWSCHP
# ASSAY METHOD TEXT: Acyl-CoA : Cholesterol Acyltransferase (ACAT) inhibitory activity
# Assay type: biochemical
# STUDY CONDITIONS: 10^-6 M of test compound; production of labeled cholesterol ester; read-out: ACAT Inhibition Rate (%)
Give a bare numeral; the unit % is implied.

Guide cases for inhibition at 1 µM, answers given:
Cc1cc2c(-c3ccccc3C)c(NC(=O)Nc3ccc(F)cc3F)c(=O)n(C)c2cc1Cl [Example 24]: 99.2
CCc1ccc2c(c1)c(-c1ccccc1Cl)c(NC(=O)Nc1c(C)cccc1C(C)C)c(=O)n2C [Example 18]: 99.2

Kindly consider the entry below.
Prompt: Can you look up the measured inhibition at 1 µM of COc1ccc(-c2c(NC(=O)Nc3ccc(F)cc3F)c(=O)n(C)c3ccc(C)cc23)cc1OC [Example 11] for me?
Response: 96.6

* * *

# SYSTEM TESTED: acyl-CoA : cholesterol acyltransferase (ACAT) (Rattus norvegicus)
# Construct: mucosal microsome fraction of the small intestine; from tissue; host or cells: mucosal microsome fraction of rat small intestine
# ASSAY METHOD TEXT: Acyl-CoA : Cholesterol Acyltransferase (ACAT) inhibitory activity
# Format: biochemical
# STUDY CONDITIONS: 10^-6 M of test compound; production of labeled cholesterol ester; read-out: ACAT Inhibition Rate (%)
Recorded inhibition at 1 µM for the following molecules
Enter your answer as a number in %; do not include the unit.

A selection of reference data follows.
Cc1ccccc1-c1c(NC(=O)Nc2ccc(F)cc2F)c(=O)n(C)c2ccc(Cl)cc12: 96.1
Cc1ccccc1-c1c(NC(=O)Nc2c(C)cccc2C(C)C)c(=O)n(C)c2ccc(Cl)cc12: 99.4
Cc1cc(C)c2c(c1)c(-c1ccccc1Cl)c(NC(=O)Nc1ccc(F)cc1F)c(=O)n2C: 97.1

Prompt: Which value of inhibition at 1 µM has been reported for COc1ccc(-c2c(NC(=O)Nc3c(C)cccc3C(C)C)c(=O)n(C)c3ccc(Cl)cc23)cc1OC in the records?
Response: 99

Prompt: Consider next the molecule Cn1c(=O)c(NC(=O)Nc2ccc(F)cc2F)c(-c2ccccc2)c2cc(Cl)ccc21 in the same way.
Response: 77.9

Prompt: Now give it for CCn1c(=O)c(NC(=O)Nc2ccc(F)cc2F)c(-c2ccccc2Cl)c2cc(C)cc(C)c21 too.
Response: 97.9

Prompt: Also COc1nc2c(C)cc(C)cc2c(-c2ccccc2Cl)c1NC(=O)Nc1ccc(F)cc1F ?
Response: 95.9

Prompt: What do you have for Cn1c(=O)c(NC(=O)Nc2ccc(F)cc2F)c(-c2ccccc2Cl)c2cc(Cl)ccc21 ?
Response: 96.8

Prompt: Moving on to COc1nc2ccc(Cl)cc2c(-c2ccccc2Cl)c1NC(=O)Nc1ccc(F)cc1F
Response: 89.6

Prompt: Can you handle Cc1cccc(C(C)C)c1NC(=O)Nc1c(-c2ccccc2Cl)c2cc(Cl)ccc2n(C)c1=O next?
Response: 99.2

Origin of measurements: patent US5223513A
